Provenance of the data: patent US20250002543A1

# experimental_system: human antibody (gamma globulin preparation, manufactured by The Chemo-Sero-Therapeutic Research Institute) (human)
# experiment_notes: ELISA; human gamma globulin immobilised, alkali-untreated protein extract, Anti-6-His detection
I'd appreciate it if you could supply Antibody-binding activity (absorbance) (absorbance (450 nm)) values for the items below.
Give bare numbers.

// solved cases for Antibody-binding activity (absorbance) (absorbance (450 nm)) follow
{"columns": ["binder", "reported_measurement"],
 "data": [
  ["FpL_C3 5d (designed binder) ETPEEPKEEVTIKVNLIFADGKIQTAEFKGTFEEATAKAYAYAGLLAKVSGVYTADLEDGGYTINIKFAGHHHHHH", 0.46],
  ["FpL_C3 2a (designed binder) ETPEEPKEEVTIKVNLIFADGKIQTAEFKGTFEEATAKAYAYANLLAKEYGGYTADLEDGGNTINIKFAGHHHHHH", 0.72],
  ["FpL_C3 5c (designed binder) ETPEEPKEEVTIKVNLIFADGKIQTAEFKGTFEEATAKAYAYAGLLAKVYGVYTADLEDGGYTINIKFAGHHHHHH", 0.74]
]}

--- query ---
Item FpL_C3 4f (designed binder) ETPEEPKEEVTIKVNLIFADGKIQTAEFKGTFEEATAKAYAYADLLAKEYGVYTADLEDGGYTINIKFAGHHHHHH has what recorded Antibody-binding activity (absorbance) (absorbance (450 nm))?
0.9
